Measured values drawn from patent US20210324359A1 for this set.

- Test system: P. aeruginosa strain WC-453
- assayProcedure: Time-kill assay in HEPES or CAA with 25% human serum (Tables 7, 8)
- Format: cell-based, Pseudomonas aeruginosa
- testSettings: CAA + 25% human serum; lysin 10 μg/ml; 1 hr; WC-453
parameter: CAA/HuS (Log10 CFU/mL), 1 hr

>>> readoutvalue("GN431: lysin obtained from Dickeya phage phiD3 (SEQ ID NO: 64) (protein, Dickeya phage phiD3) MAILKLGNRGTEVKALQDSLNKIGFTLVADGIFGKATENAVKTVQAGAGLVIDGIVGPKTSYAIRNAGEAHQDHLTEADLIEAANQLGVDLASVKAVNQVESRGTGFTKSGKIKTLFERHIMYKKLMAKFGQARANAMGQMYPTLVSPVAGGYTGGDAELDRLHAAINIDEDCAYESASYGLFQIMGFNCQVCGYANAKEMFNDFLTGERAHLMAFVKFIKADAKLWQALKDKNWAEFARRYNGPAYTKNQYDTKLAAAYNSFN")
5.8
>>> readoutvalue("GN121: variant lysin (SEQ ID NO: 175), also disclosed in WO 2019/118632 (protein) MTYTLSKRSLDNLKGVHPDLVAVVHRAIQLTPVDFAVIEGLRSVSRQKELVAAGASKTMNSRHLTGHAVDLAAYVNGIRWDWPLYDAIAVAVKAAAKELGVAIVWGGDWTTFKDGPHFELDRSKYRRKKTRKRLKKIGKVLKWI")
7.6
